- Tested on: SNB-19
- Method: NCI tumour cell line growth inhibition, 48 h
Active and inactive are the calls of the source. Rule as the data show it: active = GI50 up to about 1.1 µM and inactive = higher.
Please respond with reported GI50 for every item in the list.

# annotated cases, reported GI50 shown
Compound	Assay target	GI50
Cc1cccc(NC(=O)C(=O)Cc2nc3ccccc3nc2O)c1C	SNB-19	> 100 µM (inactive)
CN(CC(=O)O)S(=O)(=O)c1ccc(Cl)cc1	SNB-19	> 100 µM (inactive)
CN(CCCCCl)P(=O)(OCc1ccc([N+](=O)[O-])o1)OC[C@H]1O[C@@H](n2cc(F)c(=O)[nH]c2=O)C[C@@H]1O (some centres undefined)	SNB-19	1.85 µM (inactive)
O=C(/C=C/c1ccccc1)c1ccccc1 [CHALCONE]	SNB-19	> 10 µM (inactive)
Cn1c2ccccc2n2c(=O)c(-c3ccc(O)cc3)nnc12	SNB-19	80.4 µM (inactive)

Please state, for each entry, its recorded GI50.
1. CN(C)c1ccc(C=c2c3ccccc3n3c2c2ccccc2[n+]3C)cc1
2. Cc1ccc(/C=C2\CN(C)CC3C2=NC(=S)NC3c2ccc(C)cc2)cc1 (centres undefined)
3. Cn1/c(=N\N=C2\C=C3CCCCC3(C)CC2)sc2ccccc21 (centres undefined)
4. CN(O)C(=O)c1ccc(OCc2cccc(Cl)c2)cc1

# output
["1.25 µM (inactive)", "> 61.9 µM (inactive)", "> 100 µM (inactive)", "24.6 µM (inactive)"]
